Values compiled from ChEMBL document CHEMBL4145634.

Tested on: Mus musculus
Test: Toxicity in BALB/C nude mouse xenografted with human HEL cells at 10 mg/kg, ip bid treated for 21 consecutive days
Type: organism-based
Conditions: in vivo
ATTRIBUTE MEASURED: Activity

Solved entries:
# SAMPLE SMILES, ATTRIBUTE MEASURED, REPORTED
records = [
    ("O=C(NO)c1ccc(-c2ccnc(Nc3ccc(N4CCOCC4)cc3)n2)cc1", "Activity", "Non-Toxic"),
    ("N#CCNC(=O)c1ccc(-c2ccnc(Nc3ccc(N4CCOCC4)cc3)n2)cc1", "Activity", "Non-Toxic"),
    ("CS(=O)(=O)Nc1ccc(-c2ccnc(Nc3ccc(N4CCC(C(=O)NCCCCCCCC(=O)NO)CC4)cc3)n2)cc1", "Activity", "Non-Toxic"),
    ("O=C(CCCCCCC(=O)Nc1ccccc1)NO", "Activity", "Non-Toxic"),
]

Shifting focus to the compound that follows.
(Q) Please report the recorded Activity for CS(=O)(=O)Nc1ccc(-c2ccnc(Nc3ccc(N4CCC(C(=O)Nc5ccc(/C=C/C(=O)NO)cc5)CC4)cc3)n2)cc1 .
(A) Non-Toxic

* * *

Recorded MIC50 by entry
Test system: Candida albicans
Experiment: microbe, parasite or virus in culture
Format: functional
Settings: Candida albicans, 0304103, 48 h
Description: Antifungal activity against FLC resistant Candida albicans 0304103 assessed as fluconazol MIC50 after 48 hrs by checkerboard microdilution method

Example entries and their recorded answers appear below.
# SAMPLE SMILES, MIC50
rows = [
    ("N#CCNC(=O)c1ccc(-c2ccnc(Nc3ccc(N4CCC(C(=O)NO)CC4)cc3)n2)cc1", "0.25 µg/mL"),
    ("N#CCNC(=O)c1ccc(-c2ccnc(Nc3ccc(N4CCC(C(=O)Nc5ccc(C(=O)NO)cc5)CC4)cc3)n2)cc1", "0.5 µg/mL"),
    ("CS(=O)(=O)Nc1ccc(-c2ccnc(Nc3ccc(N4CCC(C(=O)NCCCCC(=O)NO)CC4)cc3)n2)cc1", "0.5 µg/mL"),
    ("CS(=O)(=O)Nc1ccc(-c2ccnc(Nc3ccc(N4CCC(C(=O)Nc5ccc(C(=O)NO)cc5)CC4)cc3)n2)cc1", "> 64 µg/mL"),
]

We now examine a further compound.
(Q) Report MIC50 for CS(=O)(=O)Nc1ccc(-c2ccnc(Nc3ccc(N4CCC(C(=O)NCc5ccc(C(=O)NO)cc5)CC4)cc3)n2)cc1 please.
(A) 2 µg/mL

* * *

Test system: HL-60
Test: Antiproliferative activity against human HL60 cells after 48 hrs in presence of JAK2 inhibitor CYT-387 by CCK-8 assay
Assay type: functional, cell-based
Details: HL-60, 48 h
pIC50: −log10 of the molar value.
Reported pIC50 values for the following compounds.

# count of solved cases: 2
# COMPOUND, REPORTED
measured = [
    ("CN1CCc2c(c3ccccc3n2Cc2ccc(C(=O)NO)cc2)C1 [TUBASTATIN A]", "5.07 to 5.60"),
    ("O=C(CCCCCCNC(=O)c1cnc(N(c2ccccc2)c2ccccc2)nc1)NO [RICOLINOSTAT]", "5.07 to 5.60"),
]

Now let's try a different one.
(Q) # lookup: pIC50 of Nc1cc(F)ccc1NC(=O)/C=C/c1cnn(C/C=C/c2ccccc2)c1
(A) 5.38 to 5.79

* * *

Experiment: AUC (0 to infinity) in Sprague-Dawley rat at 10 mg/kg, ip by LC-MS/MS analysis
Format: ADME, organism-based
Design: dose 10 mg/kg, route intraperitoneal, time infinity
Conditions: in vivo
ATTRIBUTE MEASURED: AUC(0-inf) (ng·h/mL)
State just the number; it will be interpreted in ng·h/mL.

(Q) Returns the measured AUC(0-inf) for the input compound. Input: CS(=O)(=O)Nc1ccc(-c2ccnc(Nc3ccc(N4CCC(C(=O)Nc5ccc(/C=C/C(=O)NO)cc5)CC4)cc3)n2)cc1
(A) 4470

* * *

Molecular target: Protein deacetylase HDAC6 (Homo sapiens, UniProt Q9UBN7)
Sequence (Q9UBN7 whole entry): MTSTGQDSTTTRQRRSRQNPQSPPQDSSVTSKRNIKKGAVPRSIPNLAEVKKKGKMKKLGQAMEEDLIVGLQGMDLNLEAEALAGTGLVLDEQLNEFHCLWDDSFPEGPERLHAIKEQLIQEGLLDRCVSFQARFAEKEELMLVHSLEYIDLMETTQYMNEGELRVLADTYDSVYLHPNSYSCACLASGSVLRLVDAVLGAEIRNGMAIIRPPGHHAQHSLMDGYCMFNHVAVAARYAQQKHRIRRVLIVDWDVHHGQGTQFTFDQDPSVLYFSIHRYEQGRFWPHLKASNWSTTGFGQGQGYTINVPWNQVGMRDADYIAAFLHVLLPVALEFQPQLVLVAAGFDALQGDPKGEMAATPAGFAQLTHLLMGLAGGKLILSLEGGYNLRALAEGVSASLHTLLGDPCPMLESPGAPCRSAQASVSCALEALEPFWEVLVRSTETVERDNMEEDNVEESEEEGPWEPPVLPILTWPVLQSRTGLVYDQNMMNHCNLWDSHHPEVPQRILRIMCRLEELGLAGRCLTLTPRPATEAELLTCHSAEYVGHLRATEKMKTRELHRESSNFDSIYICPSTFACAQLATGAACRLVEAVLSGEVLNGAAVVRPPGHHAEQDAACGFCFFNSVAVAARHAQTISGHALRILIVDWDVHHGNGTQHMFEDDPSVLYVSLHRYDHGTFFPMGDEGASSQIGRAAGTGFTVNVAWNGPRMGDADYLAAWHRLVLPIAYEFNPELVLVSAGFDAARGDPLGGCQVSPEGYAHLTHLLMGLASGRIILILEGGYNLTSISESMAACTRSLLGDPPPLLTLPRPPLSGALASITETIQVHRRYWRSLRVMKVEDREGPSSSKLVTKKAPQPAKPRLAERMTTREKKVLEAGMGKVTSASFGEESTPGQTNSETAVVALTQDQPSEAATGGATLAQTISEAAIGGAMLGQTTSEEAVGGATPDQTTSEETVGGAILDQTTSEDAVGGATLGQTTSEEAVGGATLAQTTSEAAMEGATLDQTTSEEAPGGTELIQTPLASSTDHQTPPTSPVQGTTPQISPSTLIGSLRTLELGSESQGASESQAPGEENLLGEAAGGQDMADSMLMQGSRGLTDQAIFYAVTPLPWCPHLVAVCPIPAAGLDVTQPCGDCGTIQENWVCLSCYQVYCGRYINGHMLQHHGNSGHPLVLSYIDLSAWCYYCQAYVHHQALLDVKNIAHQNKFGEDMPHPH
Experiment: Inhibition of full length human recombinant HDAC6 expressed in Baculovirus infected Sf9 cells using (Ac-Leu-Gly-Lys(Ac)-AMC as substrate preincubated for 5 mins followed by substrate addition and measured after 30 mins by fluorescence assay
ATTRIBUTE MEASURED: pIC50
Remember, pIC50 is on a log scale: it is -log10 of the molar concentration.

# SAMPLE SMILES, SYSTEM NAME, pIC50
rows = [
    ("CS(=O)(=O)Nc1ccc(-c2ccnc(Nc3ccc(N4CCC(C(=O)Nc5ccc(/C=C/C(=O)NO)cc5)CC4)cc3)n2)cc1", "Protein deacetylase HDAC6 (Homo sapiens, UniProt Q9UBN7)", 7.34),
    ("CS(=O)(=O)Nc1ccc(-c2ccnc(Nc3ccc(N4CCC(C(=O)NCCCCCCCC(=O)NO)CC4)cc3)n2)cc1", "Protein deacetylase HDAC6 (Homo sapiens, UniProt Q9UBN7)", 7.13),
]

Note: attention shifts to another entry.
(Q) Lookup: pIC50 / Protein deacetylase HDAC6 (Homo sapiens, UniProt Q9UBN7) / O=C(NO)c1ccc(-c2ccnc(Nc3ccc(N4CCOCC4)cc3)n2)cc1
(A) 6.38

* * *

Test system: Candida albicans
Assay: microbe, parasite or virus in culture
Assay type: functional
Details: Candida albicans, 0304103, 48 h
MIC50 values, listed per item

// solved cases for MIC50 follow
# COMPOUND, ATTRIBUTE MEASURED, REPORTED
rows = [
    ("N#CCNC(=O)c1ccc(-c2ccnc(Nc3ccc(N4CCOCC4)cc3)n2)cc1 [MOMELOTINIB]", "MIC50", "> 64 µg/mL"),
    ("N#CCNC(=O)c1ccc(-c2ccnc(Nc3ccc(N4CCC(C(=O)Nc5ccccc5N)CC4)cc3)n2)cc1", "MIC50", "> 64 µg/mL"),
]

Moving on to another compound below.
(Q) Report MIC50 for Nc1ccccc1NC(=O)c1ccc(-c2ccnc(Nc3ccc(N4CCOCC4)cc3)n2)cc1 please.
(A) > 64 µg/mL

* * *

Test system: Candida albicans
Experiment: microbe, parasite or virus in culture
Assay type: functional
Conditions: Candida albicans, 0710922, 48 h
Description: Antifungal activity against FLC resistant Candida albicans 0710922 after 48 hrs in presence of fluconazol by checkerboard microdilution method
Recorded MIC50 values for a group of compounds are listed next.
Quick note: give the figure in µg/mL, leave out the unit.

// worked examples, MIC50 included
# SAMPLE SMILES, MIC50 [µg/mL]
measured = [
    ("CS(=O)(=O)Nc1ccc(-c2ccnc(Nc3ccc(N4CCC(C(=O)Nc5ccc(/C=C/C(=O)NO)cc5)CC4)cc3)n2)cc1", 8),
    ("O=C(NO)c1ccc(-c2ccnc(Nc3ccc(N4CCOCC4)cc3)n2)cc1", 16),
    ("N#CCNC(=O)c1ccc(-c2ccnc(Nc3ccc(N4CCC(C(=O)Nc5ccccc5N)CC4)cc3)n2)cc1", 64),
]

As a next step, examine the compound that follows.
(Q) Reported MIC50, compound CS(=O)(=O)Nc1ccc(-c2ccnc(Nc3ccc(N4CCC(C(=O)NCCCCC(=O)NO)CC4)cc3)n2)cc1 : ____
(A) 32
